# assay.overview: Aqueous solubility in pH 7.4 buffer
# Assay type: physicochemical
measurement.label: solubility (µg/mL)

{"molecule": "CCCCNc1nc(N)c2[nH]c(=O)n(Cc3ccc(OCCCN(C)C)nc3)c2n1", "unit.spec": "µg/mL", "qualifier.symbol": "=", "observed": 288}
{"molecule": "CCCCNc1nc(N)c2[nH]c(=O)n(Cc3ccc(OCCCCN(C)C)nc3)c2n1", "unit.spec": "µg/mL", "qualifier.symbol": "=", "observed": 350}
{"molecule": "CCCCNc1nc(N)c2[nH]c(=O)n(Cc3ccc(N4CCC(N(C)C)C4)nc3)c2n1 (stereo unspecified)", "unit.spec": "µg/mL", "qualifier.symbol": "=", "observed": 53}
{"molecule": "CCCCNc1nc(N)c2nc(O)n(Cc3ccc(C)nc3)c2n1", "unit.spec": "µg/mL", "qualifier.symbol": "<", "observed": 1}
{"molecule": "CCCCNc1nc(N)c2[nH]c(=O)n(Cc3ccc(N(C)CCCN(C)C)nc3)c2n1", "unit.spec": "µg/mL", "qualifier.symbol": "=", "observed": 725}
{"molecule": "CCCCNc1nc(N)c2[nH]c(=O)n(Cc3ccc(OCCN(C)C)nc3)c2n1", "unit.spec": "µg/mL", "qualifier.symbol": "=", "observed": 372}

---

# measured.on: Toll-like receptor 7 (Mus musculus, UniProt P58681)
# Sequence (P58681 whole entry): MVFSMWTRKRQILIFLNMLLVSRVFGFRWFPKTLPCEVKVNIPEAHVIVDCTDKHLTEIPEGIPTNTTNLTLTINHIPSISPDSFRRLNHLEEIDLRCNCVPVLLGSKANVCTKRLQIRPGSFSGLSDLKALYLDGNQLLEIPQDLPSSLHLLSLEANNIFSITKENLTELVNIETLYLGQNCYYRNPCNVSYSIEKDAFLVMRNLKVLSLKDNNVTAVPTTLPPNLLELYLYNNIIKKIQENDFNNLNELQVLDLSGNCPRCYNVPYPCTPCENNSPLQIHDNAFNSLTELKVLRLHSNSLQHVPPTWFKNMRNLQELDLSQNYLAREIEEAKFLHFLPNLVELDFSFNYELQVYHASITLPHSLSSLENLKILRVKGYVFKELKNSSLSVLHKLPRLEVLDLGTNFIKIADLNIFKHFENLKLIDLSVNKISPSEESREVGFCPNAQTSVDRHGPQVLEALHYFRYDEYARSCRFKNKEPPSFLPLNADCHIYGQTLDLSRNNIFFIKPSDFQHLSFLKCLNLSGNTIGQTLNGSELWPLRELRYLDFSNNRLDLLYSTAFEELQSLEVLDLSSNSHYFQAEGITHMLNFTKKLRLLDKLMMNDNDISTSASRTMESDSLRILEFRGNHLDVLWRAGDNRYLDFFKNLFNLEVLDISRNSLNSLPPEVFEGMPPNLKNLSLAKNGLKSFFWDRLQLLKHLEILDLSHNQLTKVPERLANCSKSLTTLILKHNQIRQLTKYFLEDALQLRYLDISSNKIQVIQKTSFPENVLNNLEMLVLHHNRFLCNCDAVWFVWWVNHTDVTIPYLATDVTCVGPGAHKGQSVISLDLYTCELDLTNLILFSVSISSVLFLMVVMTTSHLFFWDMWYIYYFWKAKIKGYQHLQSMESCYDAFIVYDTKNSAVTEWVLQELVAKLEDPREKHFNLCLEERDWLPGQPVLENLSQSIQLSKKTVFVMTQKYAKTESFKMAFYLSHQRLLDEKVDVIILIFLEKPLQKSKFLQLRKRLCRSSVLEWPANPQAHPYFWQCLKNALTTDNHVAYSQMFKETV
# assay.overview: Agonist activity at mouse TLR7
measurement.label: EC50 (µM)

{"smiles.repr": "CCCCNc1nc(N)c2[nH]c(=O)n(Cc3ccc(OCCN(C)C)nc3)c2n1", "observed": 0.0046}
{"smiles.repr": "CCc1nc2c(N)nc3ccccc3c2n1CCCCNS(C)(=O)=O", "observed": 6.22}
